Tested on: Candida albicans
Assay: microbe, parasite or virus in culture
Type: functional
Settings: 0304103, time 48 hrs
Description: Synergistic antifungal activity against azole-resistant Candida albicans 0304103 assessed as fungal growth inhibition measured after 48 hrs in presence of FLC by CLSI based micro-dilution broth method
Listed next: entries and their corresponding MIC80.
# unit: µg/mL | format: bare number

{"compound-structure-string": "COc1cc2c(cc1-c1c(C)noc1C)[nH]c1nc(C)nc(Nc3cc(C4CC4)nn3C)c12", "readout-units": "µg/mL", "MIC80": 16}

Now for the compound whose MIC80 we want.
Q: State, in one line, measured MIC80 of `COc1cc2c(cc1-c1c(C)noc1C)[nH]c1nc(C)nc(NCCCCCC(=O)Nc3ccc(C(=O)NO)cc3)c12`
Result: 1

====

Assay: Metabolic stability in ICR mouse liver microsome assessed as clearance
Format: ADME
Conditions: liver microsomes, read-out: CLH
The following molecules are shown together with reported CLint scaled values.
Expressed in mL/min/kg, but write only the number.

{"compound-structure-string": "COc1cc2c(cc1-c1c(C)noc1C)[nH]c1nc(C)nc(NCCCCCCC(=O)NO)c12", "CLint scaled (mL/min/kg)": 285}

Here is the next item to consider.
Q: Write down CLint scaled measured for item `COc1cc2c(cc1-c1c(C)noc1C)[nH]c1ncnc(NCCCCCCC(=O)NO)c12`
Result: 103

====

System: HL-60
Experiment: Antiproliferative activity against human HL-60 cells assessed as cell growth inhibition incubated for 24 hrs by CCK-8 assay
Assay type: functional, cell-based
Conditions: HL-60, 24 h
Each entry below lists one item and its recorded pIC50 value.
Note on pIC50: it is the negative log10 of concentration, concentration in mol/L.

Known results for molecules:
{"compound-structure-string": "COc1cc2c(cc1-c1c(C)noc1C)[nH]c1ncnc(Nc3ccc(C(=O)NO)cc3)c12", "reported-value": 5.17}
{"compound-structure-string": "COc1cc2c(cc1-c1c(C)noc1C)[nH]c1nc(C)nc(NCc3ccc(C(=O)NO)cc3)c12", "reported-value": 5.62}

Q: Recall and state the measured pIC50 for `COc1cc2c(cc1-c1c(C)noc1C)[nH]c1nc(C)nc(NCCCCCCC(=O)NO)c12` .
Result: 5.72

====

Molecular target: UniProtKB Q13547
Sequence (Q13547 whole entry, the tested form may be a part): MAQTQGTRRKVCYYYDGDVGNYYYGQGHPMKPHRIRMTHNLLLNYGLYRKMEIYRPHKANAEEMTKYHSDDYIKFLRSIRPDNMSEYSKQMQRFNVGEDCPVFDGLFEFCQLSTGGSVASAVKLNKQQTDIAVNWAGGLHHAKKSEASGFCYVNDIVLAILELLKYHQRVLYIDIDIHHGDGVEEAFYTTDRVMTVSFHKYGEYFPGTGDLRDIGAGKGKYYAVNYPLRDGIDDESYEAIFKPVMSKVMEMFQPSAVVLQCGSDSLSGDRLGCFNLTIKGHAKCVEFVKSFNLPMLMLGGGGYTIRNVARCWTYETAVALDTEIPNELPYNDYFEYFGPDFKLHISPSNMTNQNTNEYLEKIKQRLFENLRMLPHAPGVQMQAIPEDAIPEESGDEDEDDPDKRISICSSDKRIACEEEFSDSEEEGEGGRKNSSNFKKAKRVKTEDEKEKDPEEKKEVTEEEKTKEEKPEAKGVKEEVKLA
Assay: Inhibition of full-length recombinant human HDAC1 (1 to 482 residues) expressed in baculovirus infected insect cells using Ac-Leu-Gly-Lys(Ac)-AMC as substrate incubated for 30 mins by fluorescence based assay
Field: label. Allowed values: t (IC50 < 100 nM) or f (IC50 >= 100 nM).

Below, 5 molecules whose answers are already recorded.
{"compound-structure-string": "COc1cc2c(cc1-c1c(C)noc1C)[nH]c1nc(C)nc(NCCCCCCC(=O)NO)c12", "system-name": "UniProtKB Q13547", "assigned-category": "t"}
{"compound-structure-string": "COc1cc2c(cc1-c1c(C)noc1C)[nH]c1nc(C)nc(NCCCCCC(=O)NO)c12", "system-name": "UniProtKB Q13547", "assigned-category": "f"}
{"compound-structure-string": "COc1cc2c(cc1-c1c(C)noc1C)[nH]c1ncnc(NCCCCCC(=O)Nc3ccc(/C=C/C(=O)NO)cc3)c12", "system-name": "UniProtKB Q13547", "assigned-category": "f"}
{"compound-structure-string": "COc1cc2c(cc1-c1c(C)noc1C)[nH]c1nc(C)nc(NCCCCCCCC(=O)NO)c12", "system-name": "UniProtKB Q13547", "assigned-category": "f"}
{"compound-structure-string": "COc1cc2c(cc1-c1c(C)noc1C)[nH]c1ncnc(NCCCCC(=O)NO)c12", "system-name": "UniProtKB Q13547", "assigned-category": "f"}

Q: A record lists `COc1cc2c(cc1-c1c(C)noc1C)[nH]c1nc(C)nc(NCCCCCC(=O)Nc3ccc(/C=C/C(=O)NO)cc3)c12` . Is its IC50 below 100 nM?
Result: f

Reference source for all entries: ChEMBL document CHEMBL5316308
